Source of measurements: the supplement of paper PMC10307832

# Test system: NCI-H2023
# Test Method Notes: relative viability (nuclei count vs DMSO), 5 days (fraction); higher = more cells survive
# Condition Summary: first compound 8 µM
Observable: relative viability
No unit in the answer, only the number.

Q. Fill in reported relative viability for this entry: O=c1cc(-c2cccc3c2Sc2ccccc2S3)oc(N2CCOCC2)c1 + COc1cc2c(Oc3ccc(NC(=O)C4(C(=O)Nc5ccc(F)cc5)CC4)cc3F)ccnc2cc1OCCCN1CCOCC1 [Foretinib] (partner 0.25 µM)
A. 0.861

Q. Fill in reported relative viability for this entry: O=c1cc(-c2cccc3c2Sc2ccccc2S3)oc(N2CCOCC2)c1 + COc1cccc2cc(-c3nc([C@H]4CC[C@H](C(=O)O)CC4)n4ncnc(N)c34)[nH]c12 [OSI-027] (partner 0.5 µM)
A. 0.256

Q. Fill in reported relative viability for this entry: O=c1cc(-c2cccc3c2Sc2ccccc2S3)oc(N2CCOCC2)c1 + O=C(c1cc(Cc2n[nH]c(=O)c3ccccc23)ccc1F)N1CCN(C(=O)C2CC2)CC1 [Olaparib] (partner 8 µM)
A. 0.348

Q. Fill in reported relative viability for this entry: O=c1cc(-c2cccc3c2Sc2ccccc2S3)oc(N2CCOCC2)c1 + CC(=O)c1c(C)c2cnc(Nc3ccc(N4CCNCC4)cn3)nc2n(C2CCCC2)c1=O [Palbociclib] (partner 0.5 µM)
A. 0.291

Q. Fill in reported relative viability for this entry: O=c1cc(-c2cccc3c2Sc2ccccc2S3)oc(N2CCOCC2)c1 + CC(=O)Nc1cccc(-n2c(=O)n(C3CC3)c(=O)c3c(Nc4ccc(I)cc4F)n(C)c(=O)c(C)c32)c1 [Trametinib] (partner 0.02 µM)
A. 0.426

Q. Fill in reported relative viability for this entry: O=c1cc(-c2cccc3c2Sc2ccccc2S3)oc(N2CCOCC2)c1 + O=C(CCCCCCC(=O)Nc1ccccc1)NO [Vorinostat] (partner 1 µM)
A. 0.451

Q. Fill in reported relative viability for this entry: O=c1cc(-c2cccc3c2Sc2ccccc2S3)oc(N2CCOCC2)c1 + CCNC(=O)c1noc(-c2cc(C(C)C)c(O)cc2O)c1-c1ccc(CN2CCOCC2)cc1 [Luminespib] (partner 0.01 µM)
A. 0.499

Q. Fill in reported relative viability for this entry: O=c1cc(-c2cccc3c2Sc2ccccc2S3)oc(N2CCOCC2)c1 + Nc1ncn([C@H]2C[C@H](O)[C@@H](CO)O2)c(=O)n1 [Decitabine] (partner 2 µM)
A. 0.229

Q. Fill in reported relative viability for this entry: O=c1cc(-c2cccc3c2Sc2ccccc2S3)oc(N2CCOCC2)c1 + Cc1cc(Nc2cc(N3CCN(C)CC3)nc(Sc3ccc(NC(=O)C4CC4)cc3)n2)n[nH]1 [Tozasertib] (partner 0.1 µM)
A. 0.247
